The origin of these recorded values is PubChem BioAssay (NCI).

Reported GI50 values are given for each entry in this list.
Test system: OVCAR-5 ovarian
assayText: NCI tumour cell line growth inhibition, 48 h

smilesCode: O=C(COc1cccc(/C=C2\CSc3ccccc3C2=O)c1)c1ccc(Cl)cc1
testSystem: OVCAR-5 ovarian
GI50: 1850 nM
--
smilesCode: CCSc1nnc(-c2ccc3ccccc3c2O)n1-c1ccc(Cl)cc1
testSystem: OVCAR-5 ovarian
GI50: > 100000 nM
--
smilesCode: Cc1cc2cn3c4cccnc4[nH]c(=O)c3c2cc1C
testSystem: OVCAR-5 ovarian
GI50: 1660 nM
--
smilesCode: CN(C)CCCn1c2nc(=O)[nH]c(=O)c-2nc2cc(Cl)c(Cl)cc21
testSystem: OVCAR-5 ovarian
GI50: 14200 nM
--
smilesCode: CC(C)Nc1ncc2cc(Oc3ccc(F)cc3F)c(=O)n(C)c2n1
testSystem: OVCAR-5 ovarian
GI50: > 25000 nM
--
smilesCode: CNCCCNCCCN1C(=O)c2ccc3c4c(ccc(c24)C1=O)C(=O)N(CCCNCc1ccccc1OC)C3=O
testSystem: OVCAR-5 ovarian
GI50: 1250 nM
--
smilesCode: N#Cc1c(N)nc(N2CCOCC2)c(C#N)c1-c1ccccc1Cl
testSystem: OVCAR-5 ovarian
GI50: 26400 nM
--
smilesCode: COc1ccc(N(C)c2c3ccccc3nc3[nH]c4ccccc4c23)cc1
testSystem: OVCAR-5 ovarian
GI50: 917 nM
--
smilesCode: C=C1C(=O)O[C@H]2[C@H]1CC/C(COC(=O)c1ccccc1)=C\CC[C@@]1(C)O[C@@H]21
testSystem: OVCAR-5 ovarian
GI50: 2000 nM
